- System: KM12 colon
- run description: NCI-60 one-dose screen, 48 h
- test parameters: 10 µM unless noted
The panel holds about 83,000 compounds, 20% with a hit somewhere; the sample as a whole holds those more often. The source made the active and inactive calls. How the source made its calls: active means growth percent below 10; inactive means the rest.
Labels: active, inactive

1. CN1CCN(Cc2ccc(NC(=O)c3cncc(C#Cc4cnc(N)nc4)c3)cc2C(F)(F)F)CC1 : active
2. Cc1ccc2c(n1)C(=O)C(Cl)=C(Nc1cccc(C(F)(F)F)c1)C2=O : inactive
3. N#Cc1c(-c2cccs2)cc(-c2cnccn2)nc1SCC(=O)N/N=C/c1ccc(Cl)cc1 : inactive
4. COc1cc(NC(=O)Nc2cccc(-c3cc(=O)c4c(OC)c(OC)c(OC)cc4o3)c2)cc(OC)c1OC : inactive
5. NC(=S)n1c(=O)n(-c2cccc(C(F)(F)F)c2)c(=O)c2cc(-c3ccc(F)cc3F)ccc21 : active
6. CNC(=O)c1cc(N2CCc3cc(NC(=O)Nc4ccc(N5CCOCC5)c(C(F)(F)F)c4)ccc32)ccn1 : inactive
7. CN1CCC[C@]2(C)[C@H]3CC[C@@H]4[C@@H]5[C@H]6OC[C@@]5(CCC6(C)C)CC[C@@]4(C)[C@]3(C)CC[C@H]2C1(C)C : inactive
8. COc1cc2cc(Oc3ccc(NC(=O)c4cc(C(F)(F)F)cc(C(F)(F)F)c4)cc3)c(C)nc2cc1OCCN1CCOCC1 : inactive

Reference for the values: PubChem BioAssay (NCI)
